B1: ZNF263 (parent)
chain: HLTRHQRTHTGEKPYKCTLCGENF

- Variants of: B1
- assay-comment: protein stability index of a GFP-peptide fusion (GPS, HEK-293T) (PSI 1-6); higher = more stable;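 note: lentivirally expressed fusions sorted by FACS into six bins by GFP to DsRed ratio, PSI derived from sequencing read proportions per bin multiplied by bin number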
- experimental-setup: c terminus: a fixed tail appended
Label rule met for high-side protein stability index (at or above 3) and rule not met for low-side protein stability index (below it).

// known answers, use as guide
mutation-label | label-class
T3W | rule not met
P14K | rule met
G11D | rule met
Y15G | rule met
K13T | rule met

Check if protein stability index >= 3 (inclusive). Item: F24Y
rule not met

And what about the variant N23S ?
rule not met

Quick one: F24D
rule met

Consider next the variant H9E in the same way.
rule met

Similarly, T3E ?
rule met

Try N23W next.
rule not met

Also need K16Y , thanks.
rule not met
